The reported measurements were obtained from patent US9073853B2.

So I've got a bunch of compounds here, and I need their pIC50 values.
# tested.target: human CXCR3-A receptor (Homo sapiens (Human), UniProt P49682)
# Sequence (P49682 whole entry): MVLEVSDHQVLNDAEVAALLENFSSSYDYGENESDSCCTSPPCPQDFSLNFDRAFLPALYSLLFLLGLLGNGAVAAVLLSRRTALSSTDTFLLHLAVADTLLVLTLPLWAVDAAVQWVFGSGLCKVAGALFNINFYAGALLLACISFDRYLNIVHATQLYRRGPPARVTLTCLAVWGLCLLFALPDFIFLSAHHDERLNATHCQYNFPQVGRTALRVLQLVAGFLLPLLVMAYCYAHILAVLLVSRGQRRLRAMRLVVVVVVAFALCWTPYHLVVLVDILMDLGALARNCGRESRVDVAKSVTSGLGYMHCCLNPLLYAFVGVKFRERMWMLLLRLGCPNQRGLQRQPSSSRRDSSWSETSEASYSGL
# assay.procedure: 125I-CXCL10 competition radioligand binding assay
# assay.conditions: displacement of 125I-CXCL10 from membranes of CHO cells expressing human recombinant CXCR3-A
Entry type: numeric. Quantity: pIC50, the -log10 of concentration in molar units.

# input Any idea what its pIC50 is? The compound is COc1cc(CN(C[C@@H]2CC[C@H](C(=O)O)C2)[C@H](C)c2ccc3c(c2)CCO3)ccc1OCCN1C(=O)CCC1=O
# output 6.72

# input Any idea what its pIC50 is? The compound is CCC(c1ccc(Cl)cc1)N(Cc1ccc(OCCn2c(=O)ccn(C)c2=O)c(C)c1)C[C@H]1CC[C@H](C(=O)O)CC1 (stereo partly drawn)
# output 6.31

# input Any idea what its pIC50 is? The compound is Cc1cc(CN(C(C)c2ccc(Cl)c(F)c2)[C@H]2C[C@@H](C(=O)O)C2)ccc1OCCN1C(=O)CCC1=O (stereo partly drawn)
# output 6.33

----------
# tested.target: human CXCR3-A receptor (Homo sapiens (Human))
# assay.procedure: 125I-CXCL10 competition radioligand binding assay
# assay.conditions: displacement of 125I-CXCL10 from membranes of CHO cells expressing human recombinant CXCR3-A
Where a name gives a salt, the structure may show the parent alone.
So I've got a bunch of compounds here, and I need their IC50 values.
Show the value, then the unit it is measured in.

# input Any idea what its IC50 is? The compound is COc1cc(CN(C(C)c2ccc(Cl)c(Cl)c2)[C@H]2C[C@@H](C(=O)O)C2)ccc1OCCN1C(=O)CCC1=O (some centres unmarked)
# output 104 nM

# input Any idea what its IC50 is? The compound is CCc1ccc(C(C)N(Cc2ccc(OCCN3C(=O)CCC3=O)c(OC)c2)C[C@H]2CC[C@H](C(=O)O)CC2)cc1 (some centres unmarked)
# output 245 nM

# input Any idea what its IC50 is? The compound is COc1cc(CN(C[C@H]2CC[C@H](C(=O)O)CC2)[C@H]2CCc3c2ccc(Cl)c3Cl)ccc1OCCN1C(=O)CCC1=O [Example 14, hydrochloride]
# output 25 nM

# input Any idea what its IC50 is? The compound is CCc1cc(CN(C[C@H]2CC[C@H](C(=O)O)CC2)[C@@H](C)c2ccc(Cl)c(F)c2)ccc1OCCN1C(=O)CCC1=O
# output 121 nM

# input Any idea what its IC50 is? The compound is CCC(c1ccc(Cl)c(Cl)c1)N(Cc1ccc(OCCN2C(=O)CCC2=O)c(OC)c1)[C@H]1C[C@@H](C(=O)O)C1 (some centres unmarked)
# output 200 nM

# input Any idea what its IC50 is? The compound is Cc1cc(CN([C@H]2C[C@@H](C(=O)O)C2)[C@H](C)c2ccc(Cl)cc2)ccc1OCCn1c(=O)ccn(C)c1=O
# output 347 nM

# input Any idea what its IC50 is? The compound is CCc1cc(CN(C(C)c2ccc(Cl)c(F)c2)[C@H]2C[C@@H](C(=O)O)C2)ccc1OCCN1C(=O)CCC1=O (some centres unmarked)
# output 260 nM

# input Any idea what its IC50 is? The compound is COc1cc(CN(C[C@H]2CC[C@H](C(=O)O)CC2)[C@H]2CCc3cc(Cl)ccc32)ccc1OCCN1C(=O)CC2(CCCC2)CC1=O
# output 7000 nM

# input Any idea what its IC50 is? The compound is COc1cc(CN(C[C@@H]2CC[C@@H](C(=O)O)C2)[C@H](C)c2ccc3c(c2)CCO3)ccc1OCCN1C(=O)CCC1=O
# output 15 nM

# input Any idea what its IC50 is? The compound is COc1cc(CN(C[C@H]2CC[C@H](C(=O)O)CC2)[C@@H](C)c2ccc(Cl)c(C)c2)ccc1OCCN1C(=O)CCC1=O
# output 64 nM

# input Any idea what its IC50 is? The compound is COc1cc(CN(C[C@H]2CC[C@H](C(=O)O)CC2)[C@H]2CCc3cc(Cl)c(Cl)cc32)ccc1OCCN1C(=O)CCC1=O
# output 350 nM
